The reported numbers originate from ChEMBL document CHEMBL1133162.

Observed IC50 for Epidermal growth factor receptor (Homo sapiens), reported per entry below.
READOUT_TYPE: IC50 (nM)

Worked cases, answers included:
>  <SMILES_DATA>
C=CC(=O)Nc1cc2c(Nc3cccc(Br)c3)ncnc2cc1SCCCN(CC)CC

>  <READOUT_UNIT>
nM

>  <IC50>
0.78

$$$$
>  <SMILES_DATA>
C=CC(=O)Nc1nc2c(Nc3ccc(F)c(Cl)c3)ncnc2cc1OCCCN1CCOCC1

>  <READOUT_UNIT>
nM

>  <IC50>
1.5

$$$$
>  <SMILES_DATA>
C=CC(=O)Nc1cc2c(Nc3ccc(F)c(Cl)c3)ncnc2cc1OCCOCCCCO

>  <READOUT_UNIT>
nM

>  <IC50>
1.7

$$$$
>  <SMILES_DATA>
C=CC(=O)Nc1nc2c(Nc3ccc(F)c(Cl)c3)ncnc2cc1/C=C/CCN1CCOCC1

>  <READOUT_UNIT>
nM

>  <IC50>
0.16

$$$$

a. C=CC(=O)Nc1cc2c(Nc3cccc(Br)c3)ncnc2cc1OCCCCN(C)C
b. C=CC(=O)Nc1nc2c(Nc3ccc(F)c(Cl)c3)ncnc2cc1OCCOC
query: Form: Entry with minimum IC50 (choose one): a / b Please reply using the label of the selected record.
result: b
(b: 0.97 nM, a: 3.9 nM)

I. C=CC(=O)Nc1ccc2ncnc(Nc3ccc(CN(C)C)c(Br)c3)c2c1
II. C=CC(=O)Nc1nc2c(Nc3ccc(F)c(Cl)c3)ncnc2cc1OC
query: Form: Entry with minimum IC50 (choose one): I / II Please reply using the label of the selected record.
result: II
(II: 0.95 nM, I: 45 nM)
